assayInfo: Binding affinity to MT-3 (unknown origin)
Parameters: species or system Homo sapiens
experimentalReadout: Ki (nM)
Number in nM, nothing else.

**Query** Which measured Ki value corresponds to "COC(=O)Nc1ccc2[nH]cc(CCNC(C)=O)c2c1" ?
**Result** 65

---

assayInfo: Toxicity in rat
conditionSummary: in vivo
experimentalReadout: LD50

Use the examples below as a reference point.
CC(=O)Nc1cc(NC(C)=O)c2c(c1)C(CC#N)(OC(C)=O)C(=O)N2 (stereo unspecified) ... > 2400 mg/kg
COc1ccc2c(c1)c(CCNC(C)=O)cn2C ... > 2400 mg/kg
CC(=O)NCCC1(O)C(=O)Nc2ccc(NC(C)=O)cc21 (stereo unspecified) ... > 2400 mg/kg
CC(=O)Nc1ccc2c(c1)C(CC#N)C(=O)N2C (stereo unspecified) ... > 2400 mg/kg
CC(=O)Nc1ccc2c(c1)C(O)(CC#N)C(=O)N2 (stereo unspecified) ... > 2400 mg/kg
COc1ccc2c(c1)C1(C(=O)N2)C2CCC(C2)C1CNC(C)=O (stereo unspecified) ... > 2400 mg/kg
CC(=O)NCCc1cn(C)c2c(C)c(C)ccc12 ... > 2400 mg/kg
N#CCC1C(=O)Nc2ccc(Br)cc21 (stereo unspecified) ... > 2400 mg/kg
CC(=O)NCCC1C(=O)Nc2ccc(Br)cc21 (stereo unspecified) ... > 2400 mg/kg
CCC(=O)Nc1cc(NC(=O)CC)c2c(c1)C(CC#N)(OC(=O)CC)C(=O)N2 (stereo unspecified) ... > 2400 mg/kg

**Query** Which measured LD50 value corresponds to "COc1ccc2[nH]c(Cl)c(CCNC(C)=O)c2c1" ?
**Result** > 2400 mg/kg

**Query** Which measured LD50 value corresponds to CC(=O)Nc1ccc2c(c1)C(CC(=O)O)C(=O)N2 (stereo unspecified) ?
**Result** > 2400 mg/kg

**Query** Which measured LD50 value corresponds to CC(=O)Nc1ccc2c(c1)C(O)(CC(=O)O)C(=O)N2 (stereo unspecified) ?
**Result** > 2400 mg/kg

**Query** Which measured LD50 value corresponds to CCOC(=O)C(C(=O)O)C1C(=O)Nc2ccc(OC)cc21 (stereo unspecified) ?
**Result** > 2400 mg/kg

**Query** Which measured LD50 value corresponds to CCC(=O)Nc1cc(NC(=O)CC)c2c(c1)C(O)(CC#N)C(=O)N2 (stereo unspecified) ?
**Result** > 2400 mg/kg

**Query** Which measured LD50 value corresponds to COc1cc(NC(C)=O)c2c(c1)C(CC#N)(OC(C)=O)C(=O)N2 (stereo unspecified) ?
**Result** > 2400 mg/kg

**Query** Which measured LD50 value corresponds to CC(=O)Nc1ccc2c(c1)C(CC#N)C(=O)N2 (stereo unspecified) ?
**Result** > 2400 mg/kg

**Query** Which measured LD50 value corresponds to COc1ccc2c(c1)C(CC#N)C(=O)N2 (stereo unspecified) ?
**Result** > 2400 mg/kg

**Query** Which measured LD50 value corresponds to CC(=O)NCCC1C(=O)Nc2ccc(NC(C)=O)cc21 (stereo unspecified) ?
**Result** > 2400 mg/kg

**Query** Which measured LD50 value corresponds to CC(=O)Nc1cccc2c1NC(=O)C2CC#N (stereo unspecified) ?
**Result** > 2400 mg/kg

**Query** Which measured LD50 value corresponds to COc1ccc2c(c1)C1(CC1CNC(C)=O)C(=O)N2C (stereo unspecified) ?
**Result** > 2400 mg/kg
